Target: T1, RADIL, Q96JH8
T1 sequence (Q96JH8 971-1071, limits assumed, looked up): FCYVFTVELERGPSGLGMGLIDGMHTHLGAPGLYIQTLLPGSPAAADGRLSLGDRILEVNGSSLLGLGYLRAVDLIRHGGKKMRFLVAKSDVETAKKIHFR
Assay: holdup assay
Parameters: key: below the threshold = too weak to quantify, mostly under pKd 3.1 to 4
Conditions: plain residues with an end cap or a label only (N-terminal biotin on a linker: ttds)
Metric Name: pKd

KLVIKTETTV [RASSF6, Q6ZTQ3]    below the threshold
SHSSKGETAV [FZD7, O75084]    below the threshold
PPRQRSETQV [HPV82-E6, Q9IR59]    3.34
QRPYRRESEI [KCNJ12, Q14500]    below the threshold
